Assay: in vitro
Settings: rat, Kp,uu,cell,obs (observed unbound brain intracellular-to-extracellular concentration ratio)
Where a name gives a salt, the structure may show the parent alone.
measurement kind: Kp uu at 5 h
Form rule: numeric answer, no unit written next to it.

Kp uu at 5 h reading for CC(NC(C)(C)C)C(=O)c1cccc(Cl)c1 (stereo not shown) [Bupropion, bupropion hydrochloride] : 3.12

----------
Experiment: in vitro
Settings: rat, brain homogenate, pH 7.4, Unbound fraction fu,ROI (fu,brain)
Where a name gives a salt, the structure may show the parent alone.
measurement kind: fraction unbound
Lab note: jot down the number only; don't add units.

Entry COc1cccc(C2(O)CCCCC2CN(C)C)c1 (stereo not shown) [Tramadol, tramadol hydrochloride] ; fraction unbound = 0.496

----------
Test: Plasma protein binding by equilibrium dialysis
Details: rat, pH 7.4, Unbound fraction in plasma, fu,plasma, undiluted rat plasma pH 7.40, 500 nM (memantine 500 ng/mL), 6 h, 37°C, mean ± SD
Counter-ions that a name gives are not always drawn.
measurement kind: fraction unbound at 6 h
Give only the figure.

fraction unbound at 6 h measured on COc1cccc(C2(O)CCCCC2CN(C)C)c1 (stereo not shown) [Tramadol, tramadol hydrochloride] = 0.827

----------
Assay: in vitro
Conditions: rat
Where a name gives a salt, the structure may show the parent alone.
measurement kind: Kp uu
// no unit string in output, number only

Kp uu reading for COc1cccc(C2(O)CCCCC2CN(C)C)c1 (stereo not shown) [Tramadol, tramadol hydrochloride] : 2.01

----------
Assay: in vitro
Conditions: rat, brain homogenate, pH 7.4, Unbound fraction fu,ROI (fu,brain)
Counter-ions that a name gives are not always drawn.
Parameter: fraction unbound at 6 h, 1000 nM. Scope: all listed entries.
Could you respond with only the numeric value?

• CC(NC(C)(C)C)C(=O)c1cccc(Cl)c1 (centres unmarked) [Bupropion, bupropion hydrochloride] = 0.209

Next, consider the following compound.
fraction unbound at 6 h, 1000 nM reported for this compound COc1ccc(CN(CCN(C)C)c2ccccn2)cc1 [Pyrilamine, Pyrilamine maleate] : 0.093

----------
Assay: in vivo
Conditions: male, Sprague-Dawley, rat
Where a name gives a salt, the structure may show the parent alone.
measurement kind: Kp uu at 4 h

So for COc1cccc(C2(O)CCCCC2CN(C)C)c1 (stereo not shown) [Tramadol, tramadol hydrochloride] , the logged Kp uu at 4 h turned out to be 1.49

----------
Assay: in vitro
Conditions: rat
Where a name gives a salt, the structure may show the parent alone.
measurement kind: Kp uu at 5 h
Give only the figure.

* CC12CC3CC(C)(C1)CC(N)(C3)C2 [Memantine, memantine hydrochloride] | 2.11

For record COc1ccc(CN(CCN(C)C)c2ccccn2)cc1 [Pyrilamine, Pyrilamine maleate] the listed Kp uu at 5 h is 1.88

----------
Test: in vitro
Conditions: rat, tissue homogenate, pH 7.4, Unbound fraction fu,ROI
Where a name gives a salt, the structure may show the parent alone.
Catalogue of fraction unbound at 6 h, 1000 nM values
Lab note: record just the number, no unit beside it.

- COc1ccc(CN(CCN(C)C)c2ccccn2)cc1 [Pyrilamine, Pyrilamine maleate]: 0.103

Alright, here's another compound for you.
Entry CC(NC(C)(C)C)C(=O)c1cccc(Cl)c1 (centres unmarked) [Bupropion, bupropion hydrochloride] ; fraction unbound at 6 h, 1000 nM = 0.142

----------
Assay: in vitro
Conditions: rat, tissue homogenate, pH 7.4, Unbound fraction fu,ROI
Counter-ions that a name gives are not always drawn.
measurement kind: fraction unbound
// return just the number, without any unit appended

So for COc1cccc(C2(O)CCCCC2CN(C)C)c1 (stereo not shown) [Tramadol, tramadol hydrochloride] , the logged fraction unbound turned out to be 0.462
